Give pIC50 for every item shown.
EXPERIMENTAL TARGET: recombinant full-length human prolyl endopeptidase (PREP) (Homo sapiens)
Construct: To recombinant full-length human prolyl endopeptidase (PREP, R&D-Systems, 4308-SE)
Sequence (P48147 whole entry): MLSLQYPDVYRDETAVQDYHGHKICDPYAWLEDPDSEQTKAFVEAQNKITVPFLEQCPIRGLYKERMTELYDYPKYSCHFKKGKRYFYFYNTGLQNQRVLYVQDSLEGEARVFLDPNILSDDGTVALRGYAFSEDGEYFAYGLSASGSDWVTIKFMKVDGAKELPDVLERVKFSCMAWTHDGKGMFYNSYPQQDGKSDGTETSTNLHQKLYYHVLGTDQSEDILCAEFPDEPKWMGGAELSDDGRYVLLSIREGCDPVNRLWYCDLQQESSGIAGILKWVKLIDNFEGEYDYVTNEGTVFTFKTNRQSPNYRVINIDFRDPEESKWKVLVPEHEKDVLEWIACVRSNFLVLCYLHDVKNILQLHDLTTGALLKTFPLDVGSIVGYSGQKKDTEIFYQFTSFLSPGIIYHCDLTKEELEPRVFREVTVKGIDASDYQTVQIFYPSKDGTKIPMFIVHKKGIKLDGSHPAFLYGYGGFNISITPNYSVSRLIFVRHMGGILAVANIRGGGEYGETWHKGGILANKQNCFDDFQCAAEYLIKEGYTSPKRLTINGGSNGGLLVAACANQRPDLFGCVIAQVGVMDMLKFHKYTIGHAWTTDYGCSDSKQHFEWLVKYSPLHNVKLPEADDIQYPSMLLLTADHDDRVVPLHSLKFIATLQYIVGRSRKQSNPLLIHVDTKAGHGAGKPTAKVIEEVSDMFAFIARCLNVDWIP
MEASUREMENT PROTOCOL: Biochemical human prolyl endopeptidase (PREP) assay with fluorescently labelled substrate
STATED CONDITIONS: substrate Z-Gly-Pro-AMC 50 μM, 32° C., 60 min; some as mean values from multiple independent determinations
Give bare numbers, as −log10 of the molar value.

Examples with their reported pIC50 follow.
• CC1CCC(C(=O)N2CC(F)C2)n2c1nn(Cc1ccc(C(F)(F)F)nc1)c2=O (racemic) [Example 328] = 8.39
• O=C([C@@H]1CCCc2nn(Cc3ccc(F)c(Cl)c3)c(=O)n21)N1CC[C@H](O)C1 [Example 97] = 8.19
• O=C([C@@H]1CCCc2nn(Cc3cnc(C(F)(F)F)nc3)c(=O)n21)N1CC[C@H](F)C1 [Example 559] = 7.46
• O=C([C@@H]1CCCc2nn(Cc3nc(C(F)(F)F)no3)c(=O)n21)N1CC(F)C1 [Example 540] = 7.57
• O=C([C@@H]1CCCc2nn(Cc3cc4cccnc4nc3C(F)(F)F)c(=O)n21)N1CCC(F)(F)C1 [Example 418] = 8.65

List pIC50 for every entry below, keeping the order given.
1. CC1Cc2nn(Cc3ccnc(C(F)(F)F)c3F)c(=O)n2C(C(=O)N2CCC(F)(F)C2)C1 (racemic) [Example 334]
2. O=C([C@@H]1CCCc2nn(Cc3ccc(Cl)c(F)c3)c(=O)n21)N1C[C@@H](F)[C@@H](F)C1 [Example 462]
3. O=C([C@@H]1CCCc2nn(Cc3ccnc(C(F)(F)F)c3F)c(=O)n21)N1CC[C@H](O)C1 [Example 479]
4. O=C([C@@H]1CCCc2nn(Cc3ccnc(C(F)(F)F)c3F)c(=O)n21)N1CC[C@H](F)C1 [Example 484]
5. CC1Cc2nn(Cc3ccc(F)c(Cl)c3)c(=O)n2C(C(=O)N2C[C@@H](F)[C@@H](F)C2)C1 (mixture of isomers) [Example 339]
6. O=C([C@@H]1CCCc2nn(CC3(c4ccc(F)cc4F)CC3)c(=O)n21)N1CC[C@H](F)C1 [Example 358]

Response line:
1. 8.53
2. 9.55
3. 7.60
4. 9.53
5. 9.31
6. 10.17

* * *

Give pIC50 for every item shown.
EXPERIMENTAL TARGET: recombinant full-length human prolyl endopeptidase (PREP) (Homo sapiens)
Construct: To recombinant full-length human prolyl endopeptidase (PREP, R&D-Systems, 4308-SE)
MEASUREMENT PROTOCOL: Biochemical human prolyl endopeptidase (PREP) assay with fluorescently labelled substrate
STATED CONDITIONS: substrate Z-Gly-Pro-AMC 50 μM, 32° C., 60 min; some as mean values from multiple independent determinations
Give bare numbers, as −log10 of the molar value.

Examples with their reported pIC50 follow.
* O=C([C@@H]1CCCc2nn(Cc3ccc(Cl)nc3)c(=O)n21)N1CC(F)C(F)C1 (single isomer, unassigned) [Example 551] | 6.32
* O=C([C@@H]1CCCc2nn(Cc3ncc(Cl)cc3Cl)c(=O)n21)N1CCC(F)(F)C1 | 8.81
* Cc1ccc(Cn2nc3n(c2=O)C(C(=O)N2CC(F)(F)C2)CCC3)cc1 (single isomer, unassigned) [Example 115] | 8.96

Proceeding to the next compound to report its pIC50.
Prompt line: Sample `O=C([C@@H]1CCCc2nn(Cc3ncc(C(F)(F)F)cc3Cl)c(=O)n21)N1CCCC1` — what was its pIC50?
Response line: 8.77
